Values were extracted from patent US8207156B2.

Molecular target: CB1 receptor
Construct: IC50 [nM]; radioligand [3H]-CP55940
Test: In-vitro determination of affinity to CB1/CB2-receptors (radioligand [3H]-CP55940 binding)
Conditions: binding data per pharmacological methods part I, table does not say whether human transfected receptor or rat cerebellum
pIC50: −log10 of the molar value.
PARAMETER: pIC50

In the examples that follow, each entry is paired with its recorded pIC50.
COMPOUND	TEST_RESULT
O=C(NC1CCCCCC1)C1=NN(c2ccc(Cl)cc2Cl)C(c2ccc(F)cc2)C1 (stereo not shown)	6.94
CC1CCCCC1NC(=O)C1=NN(c2ccc(Cl)cc2Cl)C(c2ccc(Cl)cc2)C1 (stereo not shown)	7.60
O=C(NC1CCCc2ccccc21)C1=NN(c2ccc(Cl)cc2Cl)C(c2ccc(Cl)cc2)C1 (stereo not shown)	6.40

(P) O=C(N[C@H]1CCCC[C@@H]1OCc1ccccc1)C1=NN(c2ccc(Cl)cc2Cl)C(c2ccc(Cl)cc2)C1 (stereo partly shown)
(Q) CC1Cc2ccccc2N1NC(=O)C1=NN(c2ccc(Cl)cc2Cl)C(c2ccc(Cl)cc2)C1 (stereo not shown)
(R) C[C@@H]1CN(C(=O)C2=NN(c3ccc(Cl)cc3Cl)C(c3ccc(Cl)cc3)C2)C[C@H](C)O1 (stereo partly shown)
Rank entries according to their pIC50, from the largest number down. When ranking, write the labels in the order the request describes. P, Q, R

(a) O=C(NN1CCCCC1)C1=NN(c2ccc(Cl)cc2Cl)C(c2ccc(F)cc2)C1 (stereo not shown)
(b) O=C(NN1CCCC1)C1=NN(c2ccc(Cl)cc2Cl)C(c2ccc(Cl)cc2)C1 (stereo not shown)
(c) CCCNC(=O)C1=NN(c2ccc(Cl)cc2Cl)C(c2ccc(Cl)cc2)C1 (stereo not shown)
(d) O=C(N[N+]1([O-])CCCCC1)C1=NN(c2ccc(Cl)cc2Cl)C(c2ccc(Cl)cc2)C1 (stereo not shown)
Highest pIC50 first, then in falling order down to the smallest. Please list the labels according to the requested order. a, d, c, b

(A) O=C(NN1CCCCCC1)C1=NN(c2ccc(Cl)cc2Cl)C(c2ccc(F)cc2)C1 (stereo not shown)
(B) O=C(NN1CCN(C2CCCC2)CC1)C1=NN(c2ccc(Cl)cc2Cl)C(c2ccc(Br)cc2)C1 (stereo not shown)
Please let me know which one, A or B , has a lower measured pIC50 value. Kindly give the label for the entry you pick. B
(B: 6.25, A: 7.25)

---

Biological target: CB1 receptor (UniProt P20272)
Construct: other: compound at 10^−7 M; radioligand [3H]-CP55940; other: compound at 10^−8 M
Test: In-vitro determination of affinity to CB1/CB2-receptors (radioligand [3H]-CP55940 binding)
Conditions: compound at 10^−7 M
PARAMETER: Inhibition [%], 10^−7 M (%)

(I) O=C(NC1CCCCCC1)C1=NN(c2ccc(Cl)cc2Cl)C(c2ccc(F)cc2)C1 (stereo not drawn)
(II) O=C(NC1CCCCCC1)C1=NN(c2ccc(Cl)cc2Cl)[C@H](c2ccc(Cl)cc2)C1
(III) COC(=O)C1=NN(c2ccc(Cl)cc2Cl)C(c2ccc(Cl)cc2)C1 (stereo not drawn)
Task for the reader: place the compounds above in descending order according to recorded Inhibition [%], 10^−7 M. Return value: ordered labels per request. I, II, III
(I: 70.2%, II: 28.1%, III: −4.3%)

(I) Cl.O=C(NN1CCCCCC1)C1=NN(c2ccc(Cl)cc2Cl)[C@H](c2ccc(Cl)cc2)C1
(II) O=C(NN1CCCCCCC1)C1=NN(c2ccc(Cl)cc2Cl)C(c2ccc(Br)cc2)C1 (stereo not drawn)
(III) O=C(NN1CCOCC1)C1=NN(c2ccc(Cl)cc2Cl)C(c2ccc(Cl)cc2)C1 (stereo not drawn)
Order the entries by their reported Inhibition [%], 10^−7 M, beginning at the minimum. Returns: the labels arranged in the requested order. III, I, II
(III: 21.9%, I: 31.9%, II: 71.8%)

(I) CN1CCN(C(=O)C2=NN(c3ccc(Cl)cc3Cl)C(c3ccc(Cl)cc3)C2)CC1.Cl (stereo not drawn)
(II) O=C(NN1CCCCCCC1)C1=NN(c2ccc(Cl)cc2Cl)C(c2ccc(F)cc2)C1 (stereo not drawn)
# argmax over Inhibition [%], 10^−7 M for candidates I and II Let me know the label of the one you choose. II
(II: 63.4%, I: 5.8%)

---

Target: CB1 receptor (UniProt P20272)
Construct: other: compound at 10^−7 M; radioligand [3H]-CP55940; other: compound at 10^−8 M
Test: In-vitro determination of affinity to CB1/CB2-receptors (radioligand [3H]-CP55940 binding)
Conditions: compound at 10^−7 M
PARAMETER: Inhibition [%], 10^−7 M (%)

Recorded results for 8 molecules are shown here.
MOLECULE	VALUE_UNIT	Inhibition [%], 10^−7 M
CN(C)CCCNC(=O)C1=NN(c2ccc(Cl)cc2Cl)C(c2ccc(Cl)cc2)C1 (centres unmarked)	%	−18.9
COc1ccc(C2CC(C(=O)NN3CCCCC3)=NN2c2ccc(Cl)cc2Cl)cc1.Cl (centres unmarked)	%	76.1
Cl.O=C(NN1CCc2ccccc21)C1=NN(c2ccc(Cl)cc2Cl)[C@@H](c2ccc(Cl)cc2)C1	%	50.6
Cl.O=C(NN1CCCCC1)C1=NN(c2ccc(Cl)cc2Cl)C(c2ccc(O)cc2)C1 (centres unmarked)	%	1.4
Cl.O=C(NN1CCCCCCC1)C1=NN(c2ccc(Cl)cc2Cl)[C@@H](c2ccc(Cl)cc2)C1	%	71.3
O=C(O)C1=NN(c2ccc(Cl)cc2Cl)C(c2ccc(O)cc2)C1 (centres unmarked)	%	9.3
O=C(NCCC1CCCC1)C1=NN(c2ccc(Cl)cc2Cl)C(c2ccc(Cl)cc2)C1 (centres unmarked)	%	15.2
O=C(NN1CCCCCC1)C1=NN(c2ccc(Cl)cc2Cl)[C@H](c2ccc(Cl)cc2)C1	%	34.1

(a) Cl.O=C(NN1CCCC1)C1=NN(c2ccc(Cl)cc2Cl)C(c2ccc(Cl)cc2)C1 (centres unmarked)
(b) CCCCNC(=O)C1=NN(c2ccc(Cl)cc2Cl)C(c2ccc(Cl)cc2)C1 (centres unmarked)
// max by Inhibition [%], 10^−7 M over [ a , b ] Answer by stating the label of the chosen item. a

---

Biological target: recombinant human cannabinoid 1 receptor (CB1) (Homo sapiens, UniProt P21554)
Sequence (P21554 whole entry): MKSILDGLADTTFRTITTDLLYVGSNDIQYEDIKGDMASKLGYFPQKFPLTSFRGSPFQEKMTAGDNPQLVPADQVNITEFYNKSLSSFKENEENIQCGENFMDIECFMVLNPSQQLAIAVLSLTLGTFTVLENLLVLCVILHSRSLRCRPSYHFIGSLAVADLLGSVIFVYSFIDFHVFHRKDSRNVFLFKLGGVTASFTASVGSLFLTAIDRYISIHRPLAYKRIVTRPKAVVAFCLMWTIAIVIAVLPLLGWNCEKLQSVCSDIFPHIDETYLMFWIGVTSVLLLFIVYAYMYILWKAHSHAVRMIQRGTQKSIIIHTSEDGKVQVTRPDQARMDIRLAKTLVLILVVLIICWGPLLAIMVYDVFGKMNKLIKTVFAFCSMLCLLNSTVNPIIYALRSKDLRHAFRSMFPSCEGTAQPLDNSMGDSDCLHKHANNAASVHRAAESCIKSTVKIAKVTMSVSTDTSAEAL
Assay: In vitro determination of antagonism to CB1-receptor ([35S]GTPγS binding assay, CHO cell membranes)
Assay type: biochemical
Settings: compound at 1 μM against agonist WIN 55,212-2 (3 nM to 3 μM); effect of Rimonabant (1 μM) defined as 100%
PARAMETER: Antagonism [%] (%)

Use these answered entries as a reference point.
COMPOUND	Antagonism [%] [%]
O=C(NN1CCc2ccccc21)C1=NN(c2ccc(Cl)cc2Cl)C(c2ccc(Cl)cc2)C1 (centres unmarked) [Example 28]	63
CC1CCCC(C)N1NC(=O)C1=NN(c2ccc(Cl)cc2Cl)C(c2ccc(Cl)cc2)C1 (centres unmarked) [Example 12]	78
O=C(NC1CCC1)C1=NN(c2ccc(Cl)cc2Cl)C(c2ccc(Cl)cc2)C1 (centres unmarked) [Example 30]	54
O=C(C1=NN(c2ccc(Cl)cc2Cl)C(c2ccc(Cl)cc2)C1)N1CCCCCCC1 (centres unmarked) [Example 38]	45
O=C(NC1CC1)C1=NN(c2ccc(Cl)cc2Cl)C(c2ccc(Cl)cc2)C1 (centres unmarked) [Example 36]	−5

(P) O=C(C1=NN(c2ccc(Cl)cc2Cl)C(c2ccc(Cl)cc2)C1)N1CCCc2ccccc21 (centres unmarked) [Example 81]
(Q) CCOC(=O)C1=NN(c2ccc(Cl)cc2Cl)C(c2ccc(Cl)cc2)C1 (centres unmarked) [Example 120]
Could you determine which record has the numerically smaller Antagonism [%]? Candidates: P and Q Record your answer as the label of the chosen record. P

(P) O=C(O)C1=NN(c2ccc(Cl)cc2Cl)C(c2ccc(Br)cc2)C1 (centres unmarked) [Example 128]
(Q) CC1CCCC(NC(=O)C2=NN(c3ccc(Cl)cc3Cl)C(c3ccc(Cl)cc3)C2)C1 (centres unmarked) [Example 57]
(R) O=C(NN1Cc2cccc3cccc(c23)C1)C1=NN(c2ccc(Cl)cc2Cl)C(c2ccc(Cl)cc2)C1 (centres unmarked) [Example 25]
(S) O=C(C1=NN(c2ccc(Cl)cc2Cl)C(c2ccc(Cl)cc2)C1)N1CC=CCC1 (centres unmarked) [Example 74]
Could you please sort these 4 entries by Antagonism [%] from high to low? Put the labels in the order asked and list them. Q, S, P, R

---

Molecular target: recombinant human cannabinoid 1 receptor (CB1) (Homo sapiens, UniProt P21554)
Experiment: In vitro determination of antagonism to CB1-receptor ([35S]GTPγS binding assay, CHO cell membranes)
Type: biochemical
Details: compound at 1 μM against agonist WIN 55,212-2 (3 nM to 3 μM); effect of Rimonabant (1 μM) defined as 100%
PARAMETER: Antagonism [%] (%)

Would you please look over these solved cases?
COMPOUND	VALUE_UNIT	Antagonism [%]
CN(C)C(=O)C1=NN(c2ccc(Cl)cc2Cl)C(c2ccc(Cl)cc2)C1 (centres unmarked)	%	21
O=C(C1=NN(c2ccc(Cl)cc2Cl)C(c2ccc(Cl)cc2)C1)N1CCc2sccc2C1 (centres unmarked)	%	44

(1) CCC1CCC(C)N(C(=O)C2=NN(c3ccc(Cl)cc3Cl)C(c3ccc(Cl)cc3)C2)C1 (centres unmarked)
(2) O=C(O)[C@@H]1CCCN1C(=O)C1=NN(c2ccc(Cl)cc2Cl)C(c2ccc(Cl)cc2)C1 (some centres unmarked)
(3) CN1CCN(C(=O)C2=NN(c3ccc(Cl)cc3Cl)C(c3ccc(Cl)cc3)C2)CC1 (centres unmarked)
(4) CCOC(=O)N1CCN(C(=O)C2=NN(c3ccc(Cl)cc3Cl)C(c3ccc(Cl)cc3)C2)CC1 (centres unmarked)
(5) O=C(NN1CC2CCCC2C1)C1=NN(c2ccc(Cl)cc2Cl)C(c2ccc(Cl)cc2)C1 (centres unmarked)
Could you please sort these 5 entries by Antagonism [%] from high to low? I'd appreciate it if you listed the labels in the requested order. 5, 1, 4, 3, 2

(I) O=C(C1=NN(c2ccc(Cl)cc2Cl)C(c2ccc(Cl)cc2)C1)N1CCOCC1 (centres unmarked)
(II) CC1CCCC(C)N1NC(=O)C1=NN(c2ccc(Cl)cc2Cl)C(c2ccc(Br)cc2)C1 (centres unmarked)
Field: lower recorded Antagonism [%] (choose I or II ) State the label of the item chosen. I
(I: 46%, II: 67%)

(a) Cl.O=C(NN1CCOCC1)C1=NN(c2ccc(Cl)cc2Cl)C(c2ccc(Cl)cc2)C1 (centres unmarked)
(b) Cl.O=C(NN1CCCC1)C1=NN(c2ccc(Cl)cc2Cl)C(c2ccc(Cl)cc2)C1 (centres unmarked)
Of the pair a and b , name the member with the lesser recorded Antagonism [%]. Respond using the label that marks the chosen record. a
(a: 53%, b: 82%)
